From: ChEMBL document CHEMBL2034874

The reader will find reported CC50 values listed item by item below.
# assay_protocol: Cytotoxicity against BHK21 cells by MTT assay
# Type: cell-based, Mesocricetus auratus
# test_parameters: hamster, BHK-21 cells
measurement_type: CC50

| structure | experimental_value |
| --- | --- |
| COc1ccc(-c2nc3cc(/C(C)=N/NC(N)=S)ccc3n2C2CCCCC2)c(OC)c1 | 17 µM |
| C/C(=N\NC(N)=O)c1ccc2c(c1)nc(-c1ccccn1)n2C1CCCCC1 | > 100 µM |
| C/C(=N\NC(N)=S)c1ccc2c(c1)nc(-c1ccc(Cl)cc1)n2C1CCCCC1 | > 100 µM |
| COc1ccc(-c2nc3cc(/C(C)=N/NC(N)=S)ccc3[nH]2)cc1 | 13 µM |
| C/C(=N\NC(N)=S)c1ccc2c(c1)nc(-c1ccccn1)n2C1CCCCC1 | 24 µM |
| CC(=O)c1ccc2c(c1)nc(-c1ccc(Cl)cc1)n2C1CCCCC1 | > 100 µM |
| C/C(=N\NC(N)=O)c1ccc2[nH]c(C3CCCCC3)nc2c1 | > 100 µM |
| C/C(=N\NC(N)=S)c1ccc2[nH]c(-c3ccccc3)nc2c1 | 32 µM |
| C/C(=N\NC(N)=S)c1ccc2[nH]c(-c3ccoc3)nc2c1 | > 100 µM |
| CC(=O)c1ccc2c(c1)nc(-c1ccoc1)n2C1CCCCC1 | 77 µM |
| C/C(=N\NC(N)=S)c1ccc2c(c1)nc(-c1ccc(C(F)(F)F)cc1)n2C1CCCCC1 | > 100 µM |
